Hey, just so you know, these numbers are from ChEMBL document CHEMBL1177670.

Please provide measured pKi for the entries that follow.
Lab note: report pKi as minus log10 of the concentration in molar units, number only.

Measured pKi for this entry "OC1(c2ccc(Cl)cc2)CCN(Cc2c[nH]c3ccccc23)CC1" on D(3) dopamine receptor (Homo sapiens): 6.98

pKi of "COc1cccc2[nH]cc(CN3CCC(O)(c4ccc(Cl)cc4)CC3)c12" , assay on D(3) dopamine receptor (Homo sapiens), is 6.60

Per the reported D(3) dopamine receptor (Homo sapiens) data, "OC1(c2ccc(Br)cc2)CCN(Cc2c[nH]c3ccccc23)CC1" has pKi of 6.96

"COc1cccc2[nH]cc(CN3CCC(O)(c4ccc(Br)cc4)CC3)c12" tested on D(3) dopamine receptor (Homo sapiens) gave pKi: 6.72

Tested on D(3) dopamine receptor (Homo sapiens): "COc1ccc2[nH]cc(CN3CCC(O)(c4ccc(Cl)cc4)CC3)c2c1" . Observed pKi: 6.69

* * *

Can you tell me Ki for the items I'm about to list?
Your answer should be a plain number; it is taken to be in nM.

Reading of Ki for "OC1(c2ccc(Br)cc2)CCN(Cc2c[nH]c3ccccc23)CC1" with D(2) dopamine receptor (Homo sapiens): 4.8

Considering "COc1ccc2[nH]cc(CN3CCC(O)(c4ccc(Cl)cc4)CC3)c2c1" , its Ki with D(2) dopamine receptor (Homo sapiens) was recorded as 4.2

Item "COc1cccc2[nH]cc(CN3CCC(O)(c4ccc(Br)cc4)CC3)c12" was tested on D(2) dopamine receptor (Homo sapiens); the reported Ki is 2.3

Bench note, D(2) dopamine receptor (Homo sapiens): entry "COc1ccc2[nH]cc(CN3CCC(O)(c4ccc(Br)cc4)CC3)c2c1" , its Ki = 2.5

Item: "COc1cccc2[nH]cc(CN3CCC(O)(c4ccc(Cl)cc4)CC3)c12" | System: D(2) dopamine receptor (Homo sapiens) | Ki: 4.2

* * *

test.system: D(2) dopamine receptor (Homo sapiens, UniProt P14416)
Sequence (P14416 whole entry): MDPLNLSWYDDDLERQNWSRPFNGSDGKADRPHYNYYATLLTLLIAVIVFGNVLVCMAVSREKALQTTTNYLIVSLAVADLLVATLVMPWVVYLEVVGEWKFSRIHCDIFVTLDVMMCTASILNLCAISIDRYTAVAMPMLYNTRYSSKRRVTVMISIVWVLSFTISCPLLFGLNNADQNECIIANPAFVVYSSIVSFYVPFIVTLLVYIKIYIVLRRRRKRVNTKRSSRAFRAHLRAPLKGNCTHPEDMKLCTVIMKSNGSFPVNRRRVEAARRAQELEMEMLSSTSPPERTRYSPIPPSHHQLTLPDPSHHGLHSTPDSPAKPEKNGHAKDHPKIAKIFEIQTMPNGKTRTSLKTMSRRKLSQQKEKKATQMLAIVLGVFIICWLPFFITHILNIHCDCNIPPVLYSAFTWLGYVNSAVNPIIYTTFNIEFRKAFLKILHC
protocol.details: biochemical
I'd be grateful if you could share measured Ki for these entries.
Write the number in nM without appending the unit.

// sample "O=C1N(Cc2cn(CCF)nn2)CN(c2ccccc2)C12CCN(Cc1coc3ccccc13)CC2" , its Ki was 2

The compound identified as "OC1(c2ccc(I)cc2)CCN(Cc2c[nH]c3ncccc23)CC1" registered its Ki at 61

Consider "OC1(c2ccccc2)CCN(Cc2cc3ccccc3s2)CC1" . Its measured Ki is 46.8

Ki recorded for this compound, "OC1(c2ccc(I)cc2)CCN(Cc2c[nH]c3ccccc23)CC1" , is 3.8

Ki reading for "COc1ccc2[nH]cc(CN3CCC(O)(c4ccc(I)cc4)CC3)c2c1" : 0.9

Memo: "CN1CN(c2ccccc2)C2(CCN(Cc3coc4ccccc34)CC2)C1=O" , reported Ki: 7.1

Record "OC1(c2ccc(Br)cc2)CCN(Cc2coc3ccccc23)CC1" . Reported Ki: 6.6

Lab note: "OC1(c2ccc(I)cc2)CCN(Cc2coc3ccccc23)CC1" gave Ki of 2.4

# Ki (compound: "OC1(c2ccc(Br)cc2)CCN(Cc2c[nH]c3ncccc23)CC1" ) is 212

Item: "O=C1N(CCF)CN(c2ccccc2)C12CCN(Cc1coc3ccccc13)CC2" | Ki: 8

Entry "COc1ccc2[nH]cc(CN3CCC(O)(c4ccccc4)CC3)c2c1" ; Ki = 1400

The compound "CSc1ccc(C2(O)CCN(Cc3c[nH]c4ncccc34)CC2)cc1" showed Ki equal to 254
